- targetOfAssay: TYK2 (Homo sapiens, UniProt P29597)
- Construct: endogenous in cells; host or cells: Molt4 (ATCC CRL-1582) and Ramos (ATCC CRL-1596), mixed lysate 1:2
- Sequence (P29597 whole entry): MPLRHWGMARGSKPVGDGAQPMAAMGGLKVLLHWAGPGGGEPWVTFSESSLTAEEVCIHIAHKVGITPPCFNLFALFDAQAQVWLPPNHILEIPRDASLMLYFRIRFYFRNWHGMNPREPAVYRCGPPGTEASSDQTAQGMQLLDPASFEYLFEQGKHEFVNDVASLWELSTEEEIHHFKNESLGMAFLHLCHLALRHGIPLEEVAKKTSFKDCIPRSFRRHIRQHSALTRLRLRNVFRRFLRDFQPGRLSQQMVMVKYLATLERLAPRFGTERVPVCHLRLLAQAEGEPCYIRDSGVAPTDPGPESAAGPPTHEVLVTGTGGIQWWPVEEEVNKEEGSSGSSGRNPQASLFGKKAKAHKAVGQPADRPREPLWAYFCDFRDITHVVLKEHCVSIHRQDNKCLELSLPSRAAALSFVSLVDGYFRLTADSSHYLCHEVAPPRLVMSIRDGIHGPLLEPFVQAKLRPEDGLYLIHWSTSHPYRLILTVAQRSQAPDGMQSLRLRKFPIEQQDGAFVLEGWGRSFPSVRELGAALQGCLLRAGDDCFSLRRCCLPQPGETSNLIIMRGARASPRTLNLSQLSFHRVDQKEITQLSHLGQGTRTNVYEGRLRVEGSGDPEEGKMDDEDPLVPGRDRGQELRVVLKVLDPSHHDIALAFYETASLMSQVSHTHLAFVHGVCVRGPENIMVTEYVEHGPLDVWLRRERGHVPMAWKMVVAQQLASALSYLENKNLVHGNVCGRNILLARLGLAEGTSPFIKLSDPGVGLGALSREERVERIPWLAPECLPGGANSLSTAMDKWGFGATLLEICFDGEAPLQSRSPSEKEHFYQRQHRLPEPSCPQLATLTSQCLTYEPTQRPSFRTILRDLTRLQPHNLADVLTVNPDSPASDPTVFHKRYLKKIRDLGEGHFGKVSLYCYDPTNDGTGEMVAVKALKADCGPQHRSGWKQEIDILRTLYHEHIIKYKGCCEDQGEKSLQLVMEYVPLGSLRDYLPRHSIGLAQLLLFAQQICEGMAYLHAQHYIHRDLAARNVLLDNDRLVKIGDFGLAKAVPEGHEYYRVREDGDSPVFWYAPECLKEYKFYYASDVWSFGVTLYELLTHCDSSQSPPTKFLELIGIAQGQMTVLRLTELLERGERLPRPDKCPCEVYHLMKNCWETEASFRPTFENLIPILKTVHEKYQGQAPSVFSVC
- testSummary: Kinobeads assay, TYK2 (competition binding in mixed Molt4/Ramos cell lysate, dot blot detection)
- particulars: Kinobeads assay, Molt4/Ramos lysate; read-out: TYK2 Band (Kinobeads assay potency, IC50)
quantityKind: IC50

compound: Fc1ccccc1CNc1nc(Nc2cn[nH]c2)ncc1Cl [Example I-369]
IC50: 100 to 1000 nM
--
compound: [2H]C([2H])(O)C([2H])([2H])n1cc(Nc2ncc(Cl)c(NCc3c(F)cccc3F)n2)cn1 [Example I-234]
IC50: 10 to 100 nM
--
compound: O=C(Cn1cc(Nc2nccc(NCc3c(F)cc(F)cc3F)n2)cn1)N[C@@H]1C[C@@H]1F [Example I-102]
IC50: ≤ 10 nM
--
compound: CS(=O)(=O)c1cccc(CNc2nc(Nc3cnn(CC(N)=O)c3)ncc2Cl)c1 [Example I-439]
IC50: 100 to 1000 nM

Query :: For Cc1cnc(Nc2cnn(C)c2)nc1NCc1cccc(CNS(C)(=O)=O)c1 [Example I-402] , write its IC50.
Result :: 100 to 1000 nM

Query :: In one line, give reported IC50 of the entry CCOC(=O)Cn1cc(Nc2ncc(F)c(NCc3c(F)cc(F)cc3F)n2)cn1 [Example I-54] .
Result :: 10 to 100 nM

Query :: Please look at this compound and report its IC50: CNC(=O)Cn1cc(Nc2ncc(Cl)c(NCc3cc(F)cc(C(F)(F)F)c3)n2)cn1 [Example I-189]
Result :: 100 to 1000 nM

Query :: Check the records and state IC50 for CC(C)NC(=O)Cn1cc(Nc2nccc(NCc3c(F)ccc(F)c3F)n2)cn1 [Example I-63]
Result :: ≤ 10 nM

Query :: Specify measured IC50 for COc1ccc(Cl)c(CNc2nc(Nc3cnn(CC(=O)N4CCOCC4)c3)ncc2F)c1F [Example I-81] .
Result :: ≤ 10 nM

Query :: Please report the measured IC50 for CNC(=O)Cn1cc(Nc2ncc(Cl)c(NCc3c(Cl)cccc3Cl)n2)cn1 [Example I-325]
Result :: 10 to 100 nM

====

- targetOfAssay: TYK2 (Homo sapiens)
- Construct: endogenous in cells; host or cells: Molt4 (ATCC CRL-1582) and Ramos (ATCC CRL-1596), mixed lysate 1:2
- testSummary: Kinobeads assay, TYK2 (competition binding in mixed Molt4/Ramos cell lysate, dot blot detection)
- particulars: Kinobeads assay, Molt4/Ramos lysate; read-out: TYK2 Band (Kinobeads assay potency, IC50)
pIC50: −log10 of the molar value.
quantityKind: pIC50

Known pIC50 results, listed for orientation:
compound: CC(O)Cn1cc(Nc2ncc(Cl)c(NCc3c(F)cccc3F)n2)cn1 (stereo not drawn)
targetOfAssay: TYK2 (Homo sapiens)
pIC50: 7.00 to 8.00
//
compound: CNS(=O)(=O)c1ccccc1CNc1nc(Nc2cnn(CCO)c2)ncc1Cl
targetOfAssay: TYK2 (Homo sapiens)
pIC50: 7.00 to 8.00
//
compound: O=C(Cn1cc(Nc2ncc(Cl)c(NCc3ccccc3)n2)cn1)N1CCCC1
targetOfAssay: TYK2 (Homo sapiens)
pIC50: 7.00 to 8.00

Query :: Determine from records and report pIC50 for CCOc1ccc(F)c(CNc2nc(Nc3cnn(CC(=O)N(C)C)c3)ncc2Cl)c1F
Result :: 7.00 to 8.00

Query :: Please supply the value of reported pIC50 for the item CCOc1ccc(F)c(CNc2nc(Nc3cnn(CC(=O)NC)c3)ncc2Cl)c1F
Result :: 7.00 to 8.00

Query :: Supply reported pIC50 belonging to this compound: O=C(Cn1cc(Nc2nccc(NCc3c(F)ccc(F)c3F)n2)cn1)NC1CC1
Result :: ≥ 8.00

====

- targetOfAssay: TYK2 (Homo sapiens, UniProt P29597)
- Construct: endogenous in cells; host or cells: Molt4 (ATCC CRL-1582) and Ramos (ATCC CRL-1596), mixed lysate 1:2
- testSummary: Kinobeads assay, TYK2 (competition binding in mixed Molt4/Ramos cell lysate, dot blot detection)
- particulars: Kinobeads assay, Molt4/Ramos lysate; read-out: TYK2 Band (Kinobeads assay potency, IC50)
quantityKind: IC50

Some solved cases for reference:
compound: C[C@@H](CO)NC(=O)Cn1cc(Nc2nccc(NCc3c(Cl)cccc3Cl)n2)cn1 [Example I-3]
value: 10 to 100 nM
--
compound: CCOc1ccc(F)c(CNc2nc(Nc3cnn(CCO)c3)ncc2Cl)c1F [Example I-358]
value: 10 to 100 nM
--
compound: COc1ccc(F)c(CNc2nc(Nc3cnn(CCO)c3)ncc2C)c1F [Example I-304]
value: ≤ 10 nM
--
compound: Cn1cc(Nc2ncc(Cl)c(NCc3cc(S(C)(=O)=O)ccc3F)n2)cn1 [Example I-99]
value: 10 to 100 nM
--
compound: O=C(Cn1cc(Nc2nccc(NCc3c(F)cc(F)cc3F)n2)cn1)NCC(F)F [Example I-92]
value: 10 to 100 nM

Here's the next entry for you.
Query :: Read off the recorded IC50 for CC(C)NC(=O)Cn1cc(Nc2nccc(NCc3c(F)cc(F)cc3Cl)n2)cn1 [Example I-94]
Result :: 10 to 100 nM

====

- targetOfAssay: JAK2 (Homo sapiens, UniProt O60674)
- Construct: endogenous in cells
- Sequence (O60674 whole entry): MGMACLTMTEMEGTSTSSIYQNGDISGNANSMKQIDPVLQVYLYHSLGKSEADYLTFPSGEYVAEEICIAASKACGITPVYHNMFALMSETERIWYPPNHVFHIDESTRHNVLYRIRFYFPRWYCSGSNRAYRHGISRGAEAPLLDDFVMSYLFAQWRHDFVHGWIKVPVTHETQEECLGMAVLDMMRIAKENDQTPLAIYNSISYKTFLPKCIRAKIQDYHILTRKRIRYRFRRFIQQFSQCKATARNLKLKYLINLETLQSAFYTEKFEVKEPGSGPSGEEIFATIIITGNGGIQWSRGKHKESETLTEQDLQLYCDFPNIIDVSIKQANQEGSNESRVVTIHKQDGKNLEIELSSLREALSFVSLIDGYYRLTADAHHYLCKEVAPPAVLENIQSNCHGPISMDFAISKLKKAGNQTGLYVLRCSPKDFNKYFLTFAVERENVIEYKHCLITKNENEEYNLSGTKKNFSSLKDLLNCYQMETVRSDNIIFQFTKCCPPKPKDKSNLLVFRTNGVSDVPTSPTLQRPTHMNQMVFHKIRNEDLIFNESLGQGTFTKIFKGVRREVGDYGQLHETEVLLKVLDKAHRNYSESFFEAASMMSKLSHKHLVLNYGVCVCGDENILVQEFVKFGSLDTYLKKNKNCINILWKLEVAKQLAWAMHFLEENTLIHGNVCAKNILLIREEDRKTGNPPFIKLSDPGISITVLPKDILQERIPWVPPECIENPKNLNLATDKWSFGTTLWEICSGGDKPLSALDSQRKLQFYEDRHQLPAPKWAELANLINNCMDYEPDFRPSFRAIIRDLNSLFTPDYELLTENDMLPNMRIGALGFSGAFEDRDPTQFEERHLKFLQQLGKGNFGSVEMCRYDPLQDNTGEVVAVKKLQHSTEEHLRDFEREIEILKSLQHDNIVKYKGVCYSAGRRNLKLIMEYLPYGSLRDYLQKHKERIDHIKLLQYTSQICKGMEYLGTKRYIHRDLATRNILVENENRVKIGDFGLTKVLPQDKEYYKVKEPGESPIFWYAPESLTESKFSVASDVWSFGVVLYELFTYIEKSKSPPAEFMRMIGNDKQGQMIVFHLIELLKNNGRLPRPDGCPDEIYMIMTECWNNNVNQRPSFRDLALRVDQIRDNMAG
- testSummary: Kinobeads assay, JAK2 (competition binding in mixed Molt4/Ramos cell lysate, dot blot detection)
- particulars: read-out: JAK2 Band (Kinobeads assay potency, IC50)
The entries below come with measured IC50 values attached.

Below, 4 compounds whose answers are already recorded.
compound: CS(=O)(=O)c1cccc(CNc2nc(Nc3cnn(CC(=O)NC4CC4)c3)ncc2Cl)c1 [Example I-440]
targetOfAssay: JAK2 (Homo sapiens, UniProt O60674)
quantityKind: IC50
value: 1000 to 10000 nM
//
compound: Cc1cnc(Nc2cnn(CC(=O)N[C@@H](C)CO)c2)nc1NCc1c(F)cc(F)cc1F [Example I-36]
targetOfAssay: JAK2 (Homo sapiens, UniProt O60674)
quantityKind: IC50
value: 100 to 1000 nM
//
compound: FCCn1cc(Nc2ncc(Cl)c(NCc3ccccc3)n2)cn1 [Example I-461]
targetOfAssay: JAK2 (Homo sapiens, UniProt O60674)
quantityKind: IC50
value: 1000 to 10000 nM
//
compound: CN(C)C(=O)Cn1cc(Nc2ncc(Cl)c(NCc3c(F)ccc(F)c3F)n2)cn1 [Example I-360]
targetOfAssay: JAK2 (Homo sapiens, UniProt O60674)
quantityKind: IC50
value: 100 to 1000 nM

Query :: Answer with reported IC50 of Cc1cnc(Nc2cnn(CC(N)=O)c2)nc1NCc1ccccc1S(C)(=O)=O [Example I-434]
Result :: 1000 to 10000 nM

Query :: # return recorded IC50 for input COc1ccc(S(C)(=O)=O)cc1CNc1nc(Nc2cnn(C)c2)ncc1F [Example I-446]
Result :: 1000 to 10000 nM

Query :: Give me measured IC50, please, for this compound: N#Cc1cccc(CNc2nc(Nc3cnn(CC(=O)N4CCOCC4)c3)ncc2Cl)c1 [Example I-172]
Result :: 100 to 1000 nM

Query :: Provide one value: measured IC50 of OCCn1cc(Nc2ncc(F)c(NCc3cc(F)ccc3F)n2)cn1 [Example I-203]
Result :: 10 to 100 nM

====

Known pIC50 of a selection of molecules
- targetOfAssay: TYK2 (Homo sapiens)
- Construct: endogenous in cells; host or cells: Molt4 (ATCC CRL-1582) and Ramos (ATCC CRL-1596), mixed lysate 1:2
- testSummary: Kinobeads assay, TYK2 (competition binding in mixed Molt4/Ramos cell lysate, dot blot detection)
- particulars: Kinobeads assay, Molt4/Ramos lysate; read-out: TYK2 Band (Kinobeads assay potency, IC50)
pIC50: −log10 of the molar value.

Known pIC50 results, listed for orientation:
molecule: COc1cc(F)c(CNc2nc(Nc3cnn(CC(=O)NC(C)C)c3)ncc2F)c(F)c1 [Example I-70]
value: 7.00 to 8.00
//
molecule: Cc1cnc(Nc2cnn(CC(=O)NC3CC3)c2)nc1NCc1cc(F)ccc1F [Example I-346]
value: 7.00 to 8.00
//
molecule: Cc1ccc(F)c(CNc2ccnc(Nc3cnn(CC(=O)N[C@@H](C)CO)c3)n2)c1F [Example I-130]
value: 7.00 to 8.00
//
molecule: NS(=O)(=O)c1ccc(CNc2nc(Nc3cnn(CC(=O)NC4CC4)c3)ncc2Cl)cc1 [Example I-10]
value: 7.00 to 8.00
//
molecule: CS(=O)(=O)NCc1cccc(CNc2nc(Nc3cnn(CC(=O)N4CCOCC4)c3)ncc2Cl)c1 [Example I-396]
value: 7.00 to 8.00

Field: next molecule
Query :: For TYK2 (Homo sapiens), give the measured pIC50 of the entry CCOC(=O)Cn1cc(Nc2ncc(F)c(NCc3c(F)ccc(OC)c3F)n2)cn1 [Example I-53]
Result :: 7.00 to 8.00
